Please provide measured MC3R selectivity (relative to MC4R) for the entries that follow.
target_or_system: human MC4R (Homo sapiens, UniProt P32245)
Sequence (P32245 whole entry): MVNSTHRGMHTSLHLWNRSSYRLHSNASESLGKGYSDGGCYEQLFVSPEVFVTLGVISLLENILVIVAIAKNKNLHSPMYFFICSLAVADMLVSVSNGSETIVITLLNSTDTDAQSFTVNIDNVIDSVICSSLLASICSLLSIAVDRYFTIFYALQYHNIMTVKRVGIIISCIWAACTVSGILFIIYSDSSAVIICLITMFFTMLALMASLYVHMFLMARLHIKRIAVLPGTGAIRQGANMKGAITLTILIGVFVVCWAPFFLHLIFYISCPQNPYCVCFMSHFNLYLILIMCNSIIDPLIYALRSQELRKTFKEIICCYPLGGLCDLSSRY
run_description: Intracellular cAMP levels in live cells, MC3R selectivity relative to MC4R
Format: cell-based
details: cAMP assays in human MC3R and human MC4R stable cell lines
Non-standard residues stand in square brackets, D forms with d. Residues, ends and D or L forms follow the SMILES beside them. Phe(4-I) = N[C@@H](Cc1ccc(I)cc1)C(=O)O; Nle = CCCC[C@H](N)C(=O)O

Would you mind giving MC3R selectivity (relative to MC4R) for every compound in the list below?
1. CCCC[C@H](NC(C)=O)C(=O)N[C@H](C)C(=O)N[C@@H](Cc1c[nH]cn1)C(=O)N[C@@H](Cc1ccccc1)C(=O)N[C@@H](CCCNC(=N)N)C(=O)N[C@H](Cc1c[nH]c2ccccc12)C(N)=O [CTX-1539, Nle-D-Ala-His-Phe-Arg-D-Trp] (Ac-[Nle][dA]HFR[dW]-NH2)
2. CCCC[C@H](NC(C)=O)C(=O)N[C@H](C)C(=O)N[C@@H](Cc1c[nH]cn1)C(=O)N[C@@H](Cc1ccc(I)cc1)C(=O)N[C@@H](CCCNC(=N)N)C(=O)N[C@H](Cc1ccccc1)C(=O)N[C@@H](CC(=O)O)C(=O)N[C@@H](CCCNC(=N)N)C(=O)N[C@@H](Cc1ccccc1)C(=O)NCC(=O)O [CTX-1503] (Ac-[Nle][dA]H[Phe(4-I)]R[dF]DRFG-OH)

16
214
